# experiment.description: In vivo pharmacokinetics in rats
# Design: species or system rat
# assay.setup: male, SD, plasma; Rat, PO, 50 mg kg^-1; read-out: Tmax
measured.attribute: Tmax (h)
One number for each entry, in h.

# get_value(readout='Tmax', item= CN1CCN(Cc2ccc(NC(=O)c3cncc(C#Cc4cnc5cccnn45)c3)cc2C(F)(F)F)CC1 ) 4

###

# experiment.description: In vivo pharmacokinetics in rats
# Design: species or system rat
# assay.setup: male, Sprague-Dawley, rat, plasma, po, 100 mg/kg, Rat, PO, 100 mg kg^-1; read-out: t1/2 (converted)
measured.attribute: half-life (h)
Answers are plain numbers, in h.

# get_value(readout='half-life', item= CN1CCN(Cc2ccc(NC(=O)c3cncc(C#Cc4cnc5cccnn45)c3)cc2C(F)(F)F)CC1 ) 5.84

###

# experiment.description: In vivo pharmacokinetics in rats
# Set-up: species or system rat
# assay.setup: male, SD, plasma; Rat, PO, 50 mg kg^-1; read-out: AUCPlasma (converted)
measured.attribute: AUC (ng·h/mL)
Give bare numbers, in ng·h/mL.

# get_value(readout='AUC', item= CN1CCN(Cc2ccc(NC(=O)c3cncc(C#Cc4cnc5cccnn45)c3)cc2C(F)(F)F)CC1 ) 17800

###

# experiment.description: In vivo pharmacokinetics and brain distribution in mice
# assay.setup: male, CD1, plasma; Mouse, IV, 2 mg kg^-1
measured.attribute: Cmax (ng/mL)
One number for each entry, in ng/mL.

# get_value(readout='Cmax', item= CN1CCN(Cc2ccc(NC(=O)c3cncc(C#Cc4cnc5cccnn45)c3)cc2C(F)(F)F)CC1 [HSN748] ) 513

###

# experiment.description: In vivo pharmacokinetics in rats
# Set-up: species or system rat
# assay.setup: male, Sprague-Dawley, rat, plasma, po, oral PK, stated as a range across doses / compounds; read-out: elimination half-life
Give measured half-life for each item. Keep answers brief.

# get_value(readout='half-life', item= CN1CCN(Cc2ccc(NC(=O)c3cncc(C#Cc4cnc5cccnn45)c3)cc2C(F)(F)F)CC1 ) 3 to 6 h

# input for lookup
# get_value(readout='half-life', item= Cc1n[nH]c2ncc(C#Cc3cncc(C(=O)Nc4ccc(CN5CCN(C)CC5)c(C(F)(F)F)c4)c3)cc12 ) 3 to 6 h

###

# target.under.test: B/KR(G810C) cells, KIF5B-RET G810C (Homo sapiens, UniProt P07949+P33176, G810C)
# Construct: FLAG
# Sequence (P07949 713-1063 G810C limits assumed, one chain of several): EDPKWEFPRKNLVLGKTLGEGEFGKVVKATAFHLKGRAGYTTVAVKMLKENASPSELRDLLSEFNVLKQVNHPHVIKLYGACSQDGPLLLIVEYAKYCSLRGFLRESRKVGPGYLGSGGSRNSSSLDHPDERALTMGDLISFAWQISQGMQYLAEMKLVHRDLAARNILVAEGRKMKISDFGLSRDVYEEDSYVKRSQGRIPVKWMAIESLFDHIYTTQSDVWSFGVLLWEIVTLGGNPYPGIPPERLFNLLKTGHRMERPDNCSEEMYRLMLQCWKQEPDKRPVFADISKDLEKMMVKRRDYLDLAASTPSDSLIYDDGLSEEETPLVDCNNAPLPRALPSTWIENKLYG
# experiment.description: Cell viability assay (CellTiter-Glo, 3 days) in B/KR(G810C) cells
measured.attribute: pIC50
Numbers only, as −log10 of the molar value.

The following molecules have reported results that may help.
# get_value(readout='pIC50', item= CCOc1ccc2ncc(C#Cc3cncc(C(=O)Nc4ccc(CN5CCN(C)CC5)c(C(F)(F)F)c4)c3)n2n1 ) 7.80

# get_value(readout='pIC50', item= Cc1n[nH]c2ncc(C#Cc3cncc(C(=O)Nc4ccc(CN5CCN(C)CC5)c(C(F)(F)F)c4)c3)cc12 ) 8.04

# input for lookup
# get_value(readout='pIC50', item= CN1CCN(Cc2ccc(NC(=O)c3cncc(C#Cc4cnc5cccnn45)c3)cc2C(F)(F)F)CC1 ) 8.10

###

# experiment.description: In vivo pharmacokinetics in rats
# Parameters: species or system rat
# assay.setup: male, Sprague-Dawley, plasma; Rat, PO, 10 mg kg^-1
measured.attribute: CL/F

# get_value(readout='CL/F', item= Cc1n[nH]c2ncc(C#Cc3cncc(C(=O)Nc4ccc(CN5CCN(C)CC5)c(C(F)(F)F)c4)c3)cc12 [HSND19] ) 95 mL/min/kg
